Reference source: PubChem BioAssay (NCI)

System: UO-31 renal
Assay: NCI tumour cell line growth inhibition, 48 h
# TGI values compiled below

Here are 5 compounds together with their reported answers.
compound: S=C1SCN(Cc2ccccc2)CN1Cc1ccco1
TGI: 18.7 µM

compound: Cc1cc(Cl)nc(N(CCNc2ccnc3cc(Cl)ccc23)Cc2ccco2)n1
TGI: 2.93 µM

compound: CCCCCCCCOCC(COC(=O)CCCCCCC)OC(=O)CCCCCCC (stereo not drawn)
TGI: > 100 µM

compound: CC(=O)c1ccc(N=NN2CCCC2)cc1
TGI: > 100 µM

compound: O=C1C2C3C=CC(C2C(=O)N1CO)C1C2C(=O)N(CO)C(=O)C2C31 (stereo not drawn)
TGI: > 100 µM

// query What value of measured TGI is listed for CSCCC(C(=O)O)N(C)C (stereo not drawn) ?
// result > 100 µM

---

Test system: LOX IMVI melanoma
Experiment: NCI tumour cell line growth inhibition, 48 h
# TGI values compiled below
Answer with a number only, understood to be in µM.

compound: CC(C)[C@@H]1CC[C@]2(CO2)[C@@H]2C(=O)OCC(C(=O)O)=C[C@H]21
unit_abbrev: µM
TGI: 1.42

// query GET /values?readout=TGI&system=LOX IMVI melanoma&item= CN1C(=O)CC(=O)N1/C(=C/c1ccccc1)c1ccccc1
// result 31.2

// query Another: Cc1ccc(S[C@@](C=O)(NC(=O)OCc2ccccc2)C(F)(F)F)cc1
// result 48.8

// query Another: Cc1cnc(C(=O)NNc2nc3sc4c(c3c(=O)[nH]2)C(C)CCC4)cn1 (stereo not given)
// result 6.37

// query Another: CN1CCN(c2c(F)cc(NC3=C(Cl)C(=O)c4ncccc4C3=O)cc2F)CC1
// result 5.17

// query Another: CCN1CCC(O)(c2ccc([N+](=O)[O-])cc2)C(C(=O)c2ccc([N+](=O)[O-])cc2)C1 (stereo not given)
// result 38.6

---

Tested on: M14 melanoma
Assay: NCI tumour cell line growth inhibition, 48 h
measure: TGI

Here are 5 molecules together with their reported answers.
molecule: Cc1c(C)c2c(c(N)c1C#N)C(=O)N(Cc1ccc(S(N)(=O)=O)cc1)C2=O
TGI: > 73.6 µM

molecule: Nc1nccc(-c2c(-c3ccc(F)cc3)nn3cc(C(F)(F)F)ccc23)n1
TGI: > 25 µM

molecule: NNc1nnc(CCCCCCCCc2nnc(NN)n2N)n1N
TGI: > 100 µM

molecule: COc1cc(OC)c(OC)cc1/C=C/c1nc2ccccc2s1
TGI: > 100 µM

molecule: O=C1CC(c2cccc(Cl)c2)Nc2ccc(N3CCCC3)cc21 (stereo unspecified)
TGI: > 100 µM

Switching to the query record.
// query What value of measured TGI is listed for O=C1c2ccccc2N2OC3(N4CCOCC4)CCCC3C12c1ccccc1 (stereo unspecified) ?
// result > 100 µM

---

System: HT29 colon
Assay: NCI tumour cell line growth inhibition, 48 h; in the data active = GI50 below about 0.43 µM; inactive = the rest
Parameter call: string, one of 1 (yes) = active, 0 (no) = inactive

compound: O=C1c2cc3c(cc2-c2c1c1ccc(Cl)cc1c(=O)n2C[C@H](O)CO)OCO3
class: 1 (yes)

compound: COc1ccccc1CNCCN1C(=O)c2ccc3c4c(ccc(c24)C1=O)C(=O)N(CCNCc1ccccc1OC)C3=O
class: 1 (yes)

compound: [O]=[V]([OH])([OH])[OH]
class: 0 (no)

compound: COc1ccc(-c2cc(/C=C/C(=O)c3ccc(N)cc3)[nH]n2)cc1OC
class: 0 (no)

compound: Cc1cnc(C(=O)NNc2nc3sc4c(c3c(=O)[nH]2)C(C)CCC4)cn1 (centres undefined)
class: 0 (no)

compound: COc1ccc(/C=C2\CCC/C(=C\c3ccc(OC)c(OC)c3)C2=O)cc1OC
class: 0 (no)

compound: CC(C)[C@@H]1CC[C@]2(CO2)[C@@H]2C(=O)OCC(C(=O)O)=C[C@H]21
class: 1 (yes)

compound: CC(=O)Oc1c(C(=O)[O-])cc(C(C)C)cc1C(C)C.CC(=O)Oc1c(C(=O)[O-])cc(C(C)C)cc1C(C)C.CC(=O)Oc1c(C(=O)[O-])cc(C(C)C)cc1C(C)C.CC(=O)Oc1c(C(=O)[O-])cc(C(C)C)cc1C(C)C.[Cu+2].[Cu+2]
class: 0 (no)

// query Can you look up the reported call for CCCCCC(=O)O[C@]1(C(C)=O)CCC2C3CCC4=CC(=O)CC[C@]4(C)C3CC[C@@]21C (some centres undefined) for me?
// result 0 (no)

// query Another: COc1ccc(C(O)c2cc3c(N)c(C(=O)Nc4cccc5ccccc45)sc3nc2C)cc1 (centres undefined)
// result 1 (yes)

// query Another: COc1ccccc1Oc1nccc(-c2c(-c3ccc(F)cc3)ncn2C2CCNCC2)n1
// result 0 (no)

// query Another: CCc1ccc(Nc2cc(C)c3ccc(O)cc3n2)cc1
// result 0 (no)

// query Another: ClCCOCCn1cnc2c(Cl)nc(Cl)nc21
// result 0 (no)

// query Another: S=C1SCN(Cc2ccccc2)CN1Cc1ccco1
// result 0 (no)

// query Another: COCCOC1=C(Cl)C(=O)c2ccccc2C1=O
// result 0 (no)

// query Another: O=C(Nc1ccc(OC(F)(F)Cl)cc1)c1cnc(N2CC[C@@H](O)C2)c(-c2ccn[nH]2)c1
// result 0 (no)

// query Another: CCC(c1ccccc1)c1noc(CCN(CC)CC)n1 (centres undefined)
// result 0 (no)

// query Another: CCSCC1CC(O)(c2ccccc2)C(c2ccccc2)C(c2ccc(F)cc2)O1 (centres undefined)
// result 0 (no)

// query Another: C=CCN(CC=C)C(=O)c1cc(C)nc2c1c(=O)n(-c1ccccc1)c(=O)n2CCCN1CCN(c2ccccc2OC)CC1
// result 0 (no)

---

Test system: SF-268 CNS
Experiment: NCI tumour cell line growth inhibition, 48 h
measure: TGI

// query What value of measured TGI is listed for O=C1c2cc3c(cc2-c2c1c1ccc(Cl)cc1c(=O)n2C[C@H](O)CO)OCO3 ?
// result 1.04 µM

---

# log10 of TGI values compiled below
Tested on: HCT-15 colon
Assay: NCI tumour cell line growth inhibition, 48 h
Recorded TGI (log10, µM)

Here are 5 compounds together with their reported answers.
compound: CC1NOC(=O)C1N=Nc1ccc(Cl)cc1Cl (stereo not given)
result_value: 1.58

compound: ClCCOCCn1cnc2c(Cl)nc(Cl)nc21
result_value: 1.28

compound: COc1ccc(-c2cc(/C=C/C(=O)c3ccc(N)cc3)[nH]n2)cc1OC
result_value: 0.73

compound: CCOC(=O)/C(=C/c1ccccn1)C(=O)c1ccccc1
result_value: 1.47

compound: N#Cc1c(NC(=O)C(F)(F)F)sc2c3c(=O)c4ccccc4c(=O)c=3oc3ccccc3c12
result_value: 1.70

Switching to the query record.
// query What value of measured log10 of TGI is listed for Fc1ccc(NC(c2ccc(F)cc2)C2CCN(CCCCc3ccccc3)CC2)cc1 (stereo not given) ?
// result 0.46

---

Test system: CAKI-1 renal
Assay: NCI tumour cell line growth inhibition, 48 h
# GI50 values compiled below

Here are 4 molecules together with their reported answers.
molecule: CCCCS(=O)c1sc2nc(-c3cccs3)cc(-c3ccccc3)c2c1N (stereo not given)
GI50: 10.3 µM
--
molecule: COc1ccccc1CNCCN1C(=O)c2ccc3c4c(ccc(c24)C1=O)C(=O)N(CCNCc1ccccc1OC)C3=O
GI50: 1.64 µM
--
molecule: ClCCOCCn1cnc2c(Cl)nc(Cl)nc21
GI50: 2.61 µM
--
molecule: CC(=O)NC1C(O[C@H]2C[C@H]3[C@@H]4CC=C5C[C@@H](O)CC[C@]5(C)[C@H]4CC[C@]3(C)[C@H]2[C@H](C)C(=O)CCC(C)C)OCC(O)C1O (stereo not given in full)
GI50: 1.53 µM

// query What value of measured GI50 is listed for O=C(Nc1ccc(OC(F)(F)Cl)cc1)c1cnc(N2CC[C@@H](O)C2)c(-c2ccn[nH]2)c1 ?
// result 19.4 µM

// query Another: O=C(O)CN(CCN(CC(=O)O)CC(=O)O)CC(=O)O.[Mn+2]
// result > 100 µM

// query Another: COc1ccccc1Oc1nccc(-c2c(-c3ccc(F)cc3)ncn2C2CCNCC2)n1
// result > 23.2 µM

// query Another: CCC(c1ccccc1)c1noc(CCN(CC)CC)n1 (stereo not given)
// result 2.18 µM

// query Another: CC(=O)Oc1c(C(=O)[O-])cc(C(C)C)cc1C(C)C.CC(=O)Oc1c(C(=O)[O-])cc(C(C)C)cc1C(C)C.CC(=O)Oc1c(C(=O)[O-])cc(C(C)C)cc1C(C)C.CC(=O)Oc1c(C(=O)[O-])cc(C(C)C)cc1C(C)C.[Cu+2].[Cu+2]
// result > 100 µM

// query Another: S=C1SCN(Cc2ccccc2)CN1Cc1ccco1
// result 4.81 µM
